This collection of values is drawn from the RNAGym collection of RNA variant scans (doi:10.7554/elife.80360).

B1: HDV Ribozyme (parent)
chain: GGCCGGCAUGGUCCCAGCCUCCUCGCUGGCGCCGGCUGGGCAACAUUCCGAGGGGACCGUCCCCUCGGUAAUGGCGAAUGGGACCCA

# Variants of: B1
# methodNotes: self-cleavage, relative activity (ratio to wild type); higher = more cleavage; co-transcriptional
Use condition met when the recorded self-cleavage is no lower than 0.2; use condition not met when it is lower.

Here are 6 variants together with their reported answers.
{"columns": ["sequenceVariant", "assignedLabel"],
 "data": [
  ["C22U C26A", "condition met"],
  ["C19A G54C", "condition not met"],
  ["G53A A70C", "condition met"],
  ["A42C U47C", "condition not met"],
  ["G6A U79A", "condition met"],
  ["C22A U23A", "condition met"]
]}

Problem: Can G54A A78C be said to have self-cleavage at or above 0.2?
Result: condition met

Problem: Can C32G U37G be said to have self-cleavage at or above 0.2?
Result: condition not met

Problem: Can C13G G52A be said to have self-cleavage at or above 0.2?
Result: condition not met

Problem: Can C4G C41G be said to have self-cleavage at or above 0.2?
Result: condition not met

Problem: Can C30U C62U be said to have self-cleavage at or above 0.2?
Result: condition met
